Data origin: paper PMC5452035

Biological target: T1, Rtt103p CID Lys72Glu mutant (yeast, UniProt Q05543 3-131, Lys72Glu)
T1 sequence (looked up): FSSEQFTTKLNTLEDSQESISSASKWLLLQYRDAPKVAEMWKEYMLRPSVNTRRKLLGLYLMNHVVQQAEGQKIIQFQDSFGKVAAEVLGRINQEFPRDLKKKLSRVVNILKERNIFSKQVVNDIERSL
Assay: fluorescence polarisation; fluorescence anisotropy; Rtt103p CID titrated into 10 nM N-terminally FAM-labelled CTD peptide; 10°C; 35 mM KH2PO4, 100 mM KCl, pH 6.8; 1:1 model with non-specific binding (DynaFit)
Conditions: both partners purified
Non-standard residues stand in square brackets, D forms with d. No end group written: not given here. pT = C[C@@H](OP(=O)(O)O)[C@H](N)C(=O)O; FAM = 5,6-carboxyfluorescein
Measured Attribute: Kd

Looking up {FAM}-PSYSP[pT]SPSYSPTSPS (consensus heptad repeats of the C-terminal domain of the largest subunit of RNA polymerase II (Rpb1); residues named by heptad position and repeat letter (P6a ... S7c); also called pThr4-CTD; FAM-pThr4 CTD; source: synthetic peptide (JPT, Berlin, or Clonestar, Brno)) [FAM-PSYSP(pT)SPSYSPTSPS] , I see its Kd listed as 54 µM
